This section presents molecules with their documented % Relative Immunoreactivity values.
Tested on: antibodies to HCV
Assay: Peptide ELISA for relative immunoreactivity, 8 member HCV serum panel (Panel I)
Assay type: binding, human
Conditions: NS-3 peptides (Tables 4B-4D), relative to pep3 (279A)

>  <molecule>
GYKVLVLNPSVAATLGFGAYMSKAHGIDPNIRTGVRTITTGSPITYSTYGKFLADGGCSGGAYDIIICDECHSTDAT (peptide) GYKVLVLNPSVAATLGFGAYMSKAHGIDPNIRTGVRTITTGSPITYSTYGKFLADGGCSGGAYDIIICDECHSTDAT

>  <% Relative Immunoreactivity (%)>
5.1

$$$$
>  <molecule>
TMRSPVFTDNSSPPVVPQSFQVAHLHAPTGSGKSTKVPAAYAAQGYKVLVLNPSVAATLGFGAYMSKAHGIDPNIRTGVRTITTGSPITYSTYGKFLADGGCSGGAYDIIICDECHS (peptide) TMRSPVFTDNSSPPVVPQSFQVAHLHAPTGSGKSTKVPAAYAAQGYKVLVLNPSVAATLGFGAYMSKAHGIDPNIRTGVRTITTGSPITYSTYGKFLADGGCSGGAYDIIICDECHS

>  <% Relative Immunoreactivity (%)>
5.4

$$$$

All values here come from patent US5747239A.
